# TEST NAME: Pharmacokinetics from lymphopenia study (mouse)
# Assay type: in vivo
# RUN CONDITIONS: female, C57BL/6, plasma, 30 mg/kg, PK-PD (30 mpk), oral route
RECORDED ENDPOINT: AUC(0-inf) (ng·h/mL)
# unit: ng·h/mL | format: bare number

Exercise: Item under review: `Cc1ccccc1-c1ccc(-c2nc(-c3ccc(CN(C)C(C)(C)C(=O)O)c(F)c3)no2)cc1C(F)(F)F` . Reported AUC(0-inf)?
Key: 75000

---

# TARGET OR TEST SYSTEM: S1P1 (Homo sapiens, UniProt P21453)
# Sequence (P21453 whole entry): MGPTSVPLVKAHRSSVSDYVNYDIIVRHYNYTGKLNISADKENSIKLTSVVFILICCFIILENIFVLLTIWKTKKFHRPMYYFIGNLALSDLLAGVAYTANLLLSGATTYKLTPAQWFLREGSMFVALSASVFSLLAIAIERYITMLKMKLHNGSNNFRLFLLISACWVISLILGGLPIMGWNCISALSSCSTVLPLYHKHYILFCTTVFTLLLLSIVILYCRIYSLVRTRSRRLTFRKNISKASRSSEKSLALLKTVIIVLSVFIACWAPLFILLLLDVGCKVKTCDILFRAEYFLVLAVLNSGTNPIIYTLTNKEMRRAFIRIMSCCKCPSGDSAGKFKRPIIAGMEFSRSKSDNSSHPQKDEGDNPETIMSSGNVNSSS
# TEST NAME: S1P1 internalization assay in S1P1-U2OS cells (cell imaging)
# RUN CONDITIONS: U2OS cells expressing S1P1-EGFP, 384-well format
Where a name gives a salt, the structure may show the parent alone.
RECORDED ENDPOINT: pEC50
Units for pEC50: none; it is -log10 of a concentration expressed in mol/L.

Exercise: Item under review: `CC[C@@H](C(=O)O)N(C)Cc1ccc(-c2noc(-c3ccc(-c4ccccc4C)c(C(F)(F)F)c3)n2)cc1` . Reported pEC50?
Key: 7.31

Exercise: Now give it for Cc1ccccc1-c1ccc(-c2nc(-c3cccc(CNC(C(=O)O)C(C)O)c3)no2)cc1C(F)(F)F (stereo not drawn) too.
Key: 7.40

Exercise: Now give it for COCc1cc(-c2nc(-c3ccc([C@H](C)N[C@H](C)C(=O)O)cc3)no2)ccc1-c1ccccc1C [Example 3, hydrochloride salt] too.
Key: 8.09

Exercise: Now give it for `Cc1ccccc1-c1ccc(-c2nc(-c3ccc(CN[C@@H](C)C(=O)O)cc3)no2)cc1C(F)(F)F` too.
Key: 7.55

Exercise: Now give it for Cc1ccccc1-c1ccc(-c2nc(-c3ccc([C@H](C)N(C)CC(=O)O)cc3)no2)cc1C(F)(F)F [Example 34, hydrochloride salt] too.
Key: 7.58

Exercise: Now give it for CC[C@@H](N[C@H](C)c1ccc(-c2noc(-c3ccc(-c4ccccc4C)c(C(F)(F)F)c3)n2)cc1)C(=O)O [Example 11, hydrochloride salt] too.
Key: 7.59

---

# TARGET OR TEST SYSTEM: S1P3 (Homo sapiens, UniProt Q99500)
# Sequence (Q99500 whole entry, species assumed): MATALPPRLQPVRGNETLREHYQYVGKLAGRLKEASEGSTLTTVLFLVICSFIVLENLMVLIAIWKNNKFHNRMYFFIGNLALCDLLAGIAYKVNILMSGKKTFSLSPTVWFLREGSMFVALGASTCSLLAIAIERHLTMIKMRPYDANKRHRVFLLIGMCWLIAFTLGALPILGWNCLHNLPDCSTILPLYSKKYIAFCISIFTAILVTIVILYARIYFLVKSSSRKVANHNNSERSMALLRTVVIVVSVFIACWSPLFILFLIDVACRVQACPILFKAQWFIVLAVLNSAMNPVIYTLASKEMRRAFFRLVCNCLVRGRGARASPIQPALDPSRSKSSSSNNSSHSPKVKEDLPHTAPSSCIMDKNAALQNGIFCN
# TEST NAME: Receptor binding assay, [33P]sphingosine 1-phosphate competition, membranes of CHO cells expressing S1P3
# RUN CONDITIONS: 384 well plate; read-out: S1P3 Binding Ki [M] (384 well plate)
Counter-ions that a name gives are not always drawn.
For each entry below, report its Ki value.

Exercise: Item under review: CC[C@@H](N[C@H](C)c1ccc(-c2noc(-c3ccc(-c4ccccc4C)c(C(F)(F)F)c3)n2)cc1)C(=O)O [Example 11, hydrochloride salt] . Reported Ki?
Key: 2.32e-06 M

Exercise: Now give it for Cc1ccccc1-c1ccc(-c2nc(-c3ccc(CNC(C)(C)C(=O)O)c(F)c3)no2)cc1C(F)(F)F [Example 49, hydrochloride salt] too.
Key: 9.71e-07 M

Exercise: Now give it for Cc1cc(-c2nc(-c3cccc(C(C)NCC(=O)O)c3)no2)ccc1-c1ccccc1C(F)(F)F (stereo not drawn) [Example 38, hydrochloride salt] too.
Key: 1.43e-06 M

---

# TARGET OR TEST SYSTEM: UniProtKB P21453
# TEST NAME: S1P1 internalization assay in S1P1-U2OS cells (cell imaging)
# RUN CONDITIONS: U2OS cells expressing S1P1-EGFP, 384-well format
pEC50: −log10 of the molar value. Where a name gives a salt, the structure may show the parent alone.
# cutoff 8 applies to pEC50; >= gives Y, < gives N

Exercise: Is pEC50 at least 8? Consider Cc1ccccc1-c1ccc(-c2nc(-c3ccc([C@H](C)N[C@@H](C)C(=O)O)cc3)no2)cc1C(F)(F)F (racemic) [Example 26, hydrochloride salt]
Key: N

Exercise: Now give it for Cc1ccccc1-c1ccc(-c2nc(-c3ccc(C(C)N(C)CC(=O)O)cc3)no2)cc1C(F)(F)F (stereo not drawn) [Example 40, hydrochloride salt] too.
Key: N

Exercise: Now give it for Cc1cc(-c2nc(-c3ccc([C@H](C)N[C@@H](C)C(=O)O)cc3)no2)ccc1-c1ccccc1C(F)(F)F (racemic) [Example 24, hydrochloride salt] too.
Key: N

Exercise: Now give it for `Cc1ccccc1-c1ccc(-c2nc(-c3ccc(CN[C@H](C(=O)O)[C@@H](C)O)cc3)no2)cc1C(F)(F)F` too.
Key: N

Exercise: Now give it for COCc1cc(-c2nc(-c3ccc([C@H](C)NCC(=O)O)cc3)no2)ccc1-c1ccccc1C [Example 5, hydrochloride salt] too.
Key: Y

Exercise: Now give it for COCc1cc(-c2nc(-c3ccc(CN(C)C(C)(C)C(=O)O)c(F)c3)no2)ccc1-c1ccccc1C [Example 43, hydrochloride salt] too.
Key: N

Exercise: Now give it for `Cc1ccccc1-c1ccc(-c2nc(-c3cccc(CCN[C@H](C(=O)O)C(C)C)c3)no2)cc1C(F)(F)F` too.
Key: Y

Exercise: Now give it for `Cc1ccccc1-c1ccc(-c2nc(-c3ccc(CCN[C@H](C)C(=O)O)cc3)no2)cc1C(F)(F)F` too.
Key: N

---

# TARGET OR TEST SYSTEM: S1P1 (Homo sapiens)
# TEST NAME: S1P1 internalization assay in S1P1-U2OS cells (cell imaging)
# RUN CONDITIONS: U2OS cells expressing S1P1-EGFP, 384-well format
Counter-ions that a name gives are not always drawn.
Response field label: string, one of 1 (yes) (EC50 strictly below 50 nM) or 0 (no).

Exercise: Lab note: EC50 threshold 50 nM. Does this compound come in strictly under it? Cc1cc(-c2nc(-c3ccc([C@@H](C)N[C@H](C)C(=O)O)cc3)no2)ccc1-c1ccccc1C(F)F [Example 2, hydrochloride salt]
Key: 1 (yes)

Exercise: Now give it for Cc1cc(-c2nc(-c3ccc([C@@H](C)N(C)CC(=O)O)cc3)no2)ccc1-c1ccccc1C(F)(F)F [Example 35, hydrochloride salt] too.
Key: 0 (no)

Exercise: Now give it for Cc1cc(-c2nc(-c3ccc([C@@H](C)NCC(=O)O)cc3)no2)ccc1-c1ccccc1C(F)F [Example 7, hydrochloride salt] too.
Key: 1 (yes)

Exercise: Now give it for COCc1cc(-c2nc(-c3ccc(C(C)N(C)[C@@H](C)C(=O)O)cc3)no2)ccc1-c1ccccc1C (stereo partly drawn) too.
Key: 1 (yes)

Exercise: Now give it for `CC[C@H](NCc1ccc(-c2noc(-c3ccc(-c4ccccc4C)c(C(F)(F)F)c3)n2)cc1)C(=O)O` too.
Key: 1 (yes)

Exercise: Now give it for Cc1ccccc1-c1ccc(-c2nc(-c3cccc(CNC(C)(CO)C(=O)O)c3)no2)cc1C(F)(F)F (stereo not drawn) too.
Key: 1 (yes)

Exercise: Now give it for COCC(NCc1cccc(-c2noc(-c3ccc(-c4ccccc4C)c(C(F)(F)F)c3)n2)c1)C(=O)O (stereo not drawn) too.
Key: 0 (no)

Exercise: Now give it for `Cc1ccccc1-c1ccc(-c2nc(-c3cccc(CCN[C@H](C)C(=O)O)c3)no2)cc1C(F)(F)F` too.
Key: 1 (yes)

Exercise: Now give it for `Cc1ccccc1-c1ccc(-c2nc(-c3ccc(CCN[C@@H](C)C(=O)O)cc3)no2)cc1C(F)(F)F` too.
Key: 1 (yes)

Exercise: Now give it for `Cc1ccccc1-c1ccc(-c2nc(-c3ccc(CN(C)C(C)(C)C(=O)O)c(F)c3)no2)cc1C(F)(F)F` too.
Key: 1 (yes)

Exercise: Now give it for Cc1cc(-c2nc(-c3ccc(C(C)N(C)CC(=O)O)cc3)no2)ccc1-c1ccccc1C(F)(F)F (stereo not drawn) [Example 14, hydrochloride salt] too.
Key: 0 (no)

Exercise: Now give it for Cc1cc(-c2nc(-c3ccc([C@@H](C)NCC(=O)O)cc3)no2)ccc1-c1ccccc1C(F)(F)F [Example 8, hydrochloride salt] too.
Key: 1 (yes)

Exercise: Now give it for COCc1cc(-c2nc(-c3ccc(C(C)N(C)CC(=O)O)cc3)no2)ccc1-c1ccccc1C (stereo not drawn) [Example 15, hydrochloride salt] too.
Key: 0 (no)

Exercise: Now give it for Cc1ccccc1-c1ccc(-c2nc(-c3ccc(CN(C)[C@H](C(=O)O)C(C)C)c(F)c3)no2)cc1C(F)(F)F [Example 13, hydrochloride salt] too.
Key: 0 (no)

Exercise: Now give it for Cc1ccccc1-c1ccc(-c2nc(-c3ccc(CNC(C)(CO)C(=O)O)cc3)no2)cc1C(F)(F)F (stereo not drawn) too.
Key: 1 (yes)

Exercise: Now give it for Cc1ccccc1-c1ccc(-c2nc(-c3ccc(CN(C)[C@@H](CO)C(=O)O)c(F)c3)no2)cc1C(F)(F)F [Example 45, hydrochloride salt] too.
Key: 1 (yes)

Exercise: Now give it for Cc1ccccc1-c1ccc(-c2nc(-c3ccc(CN[C@H](C(=O)O)C(C)C)c(F)c3)no2)cc1C(F)(F)F [Example 47, hydrochloride salt] too.
Key: 1 (yes)

Exercise: Now give it for Cc1ccccc1-c1ccc(-c2nc(-c3cccc(CNC(C(=O)O)C(C)C)c3)no2)cc1C(F)(F)F (stereo not drawn) too.
Key: 1 (yes)

Exercise: Now give it for `Cc1ccccc1-c1ccc(-c2nc(-c3ccc(CNC(C)(C)C(=O)O)cc3)no2)cc1C(F)(F)F` too.
Key: 1 (yes)

Exercise: Now give it for `Cc1ccccc1-c1ccc(-c2nc(-c3ccc(CN(C)C4(C(=O)O)CCCC4)cc3)no2)cc1C(F)(F)F` too.
Key: 1 (yes)

Exercise: Now give it for Cc1cc(-c2nc(-c3cccc(C(C)N(C)[C@@H](C)C(=O)O)c3)no2)ccc1-c1ccccc1C(F)(F)F (stereo partly drawn) [Example 28, hydrochloride salt] too.
Key: 0 (no)

Exercise: Now give it for Cc1ccccc1-c1ccc(-c2nc(-c3ccc([C@@H](C)N(C)CC(=O)O)cc3)no2)cc1C(F)(F)F [Example 36, hydrochloride salt] too.
Key: 1 (yes)

Exercise: Now give it for COCc1cc(-c2nc(-c3ccc([C@@H](C)N[C@H](C)C(=O)O)cc3)no2)ccc1-c1ccccc1C [Example 4, hydrochloride salt] too.
Key: 1 (yes)

Exercise: Now give it for Cc1ccccc1-c1ccc(-c2nc(-c3ccc(CNC(C(=O)O)C(C)O)cc3)no2)cc1C(F)(F)F (stereo not drawn) too.
Key: 1 (yes)

Exercise: Now give it for Cc1cc(-c2nc(-c3ccc([C@H](C)N(C)CC(=O)O)cc3)no2)ccc1-c1ccccc1C(F)(F)F [Example 33, hydrochloride salt] too.
Key: 0 (no)

Exercise: Now give it for CCC(NCc1ccc(-c2noc(-c3ccc(-c4ccccc4C)c(C(F)(F)F)c3)n2)cc1)C(=O)O (stereo not drawn) too.
Key: 1 (yes)

Exercise: Now give it for Cc1ccccc1-c1ccc(-c2nc(-c3cccc(CN(C)C(C)(CO)C(=O)O)c3)no2)cc1C(F)(F)F (stereo not drawn) too.
Key: 0 (no)
